experiment: logP value (octanol/water distribution); settings: octanol/water, logP value, octanol/water system
parameter.measured: logP

Some solved cases for reference:
Problem: Form field: reported logP of CC(C)(O)CCO
Solution: -0.33

Problem: Given the molecule CC(O)CO (stereo not drawn) , what is its reported logP?
Solution: -0.92

Problem: Quick one: logP of CCCCC(CC)(CO)CO ?
Solution: 2.1

Problem: Quick check: logP of CC(CO)CO ?
Solution: -0.6

Problem: Which value of logP has been reported for CC(O)CC(C)(C)O (stereo not drawn) in the records?
Solution: 0.88

Now look at this entry.
Problem: Find the recorded logP belonging to CCCC(=O)OCC(O)CO (stereo not drawn) and report it.
Solution: 0
